- ASSAY_TARGET: Drosophila OR10a (Drosophila melanogaster, UniProt Q9VYZ1)
- Construct: expressed in transfected cells
- Sequence (Q9VYZ1 whole entry): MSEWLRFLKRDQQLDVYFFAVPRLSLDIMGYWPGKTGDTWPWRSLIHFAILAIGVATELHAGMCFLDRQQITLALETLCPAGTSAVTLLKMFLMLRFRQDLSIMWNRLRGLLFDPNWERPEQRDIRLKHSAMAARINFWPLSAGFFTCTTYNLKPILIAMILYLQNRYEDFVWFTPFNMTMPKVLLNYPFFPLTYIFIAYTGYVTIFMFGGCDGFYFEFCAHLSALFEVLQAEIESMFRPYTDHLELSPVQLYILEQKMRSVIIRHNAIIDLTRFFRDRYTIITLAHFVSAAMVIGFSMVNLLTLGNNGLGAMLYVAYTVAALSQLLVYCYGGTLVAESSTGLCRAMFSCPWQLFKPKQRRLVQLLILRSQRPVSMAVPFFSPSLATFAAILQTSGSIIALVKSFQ
- Sequence (Q9VNB5 whole entry partner): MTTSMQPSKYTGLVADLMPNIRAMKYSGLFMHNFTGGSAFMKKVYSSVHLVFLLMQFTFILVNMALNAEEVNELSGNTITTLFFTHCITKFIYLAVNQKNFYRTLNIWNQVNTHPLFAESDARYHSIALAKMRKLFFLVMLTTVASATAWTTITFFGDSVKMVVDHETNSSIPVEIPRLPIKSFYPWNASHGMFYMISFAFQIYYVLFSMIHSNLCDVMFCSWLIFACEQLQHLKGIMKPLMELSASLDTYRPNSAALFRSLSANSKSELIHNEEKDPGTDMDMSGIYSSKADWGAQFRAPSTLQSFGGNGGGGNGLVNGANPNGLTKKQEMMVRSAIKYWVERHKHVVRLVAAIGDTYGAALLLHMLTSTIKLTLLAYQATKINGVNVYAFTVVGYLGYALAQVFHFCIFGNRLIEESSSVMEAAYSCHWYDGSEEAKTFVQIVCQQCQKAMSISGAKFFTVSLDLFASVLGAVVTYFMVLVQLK
- ASSAY_NAME: Calcium ion fluorescence (GCaMP6) assay, OR10a stable HEK293 cell line
- Assay type: cell-based
- CONDITION_PARAMETERS: concentration 10; normalized fluorescence change, values below 0.05 threshold given as 0
ASSAY_ENDPOINT: DF norm AVERAGE OR10a
Lab note: jot down the number only; don't add units.

Solved cases (4 shown):
# COMPOUND, ASSAY_ENDPOINT, NUMERIC_READOUT
measured = [
    ("CC1=CCC2C(C1)C2(C)C (centres unmarked)", "DF norm AVERAGE OR10a", 0),
    ("CCCCC(C)=O", "DF norm AVERAGE OR10a", 0),
    ("C=C1CC[C@H]2O[C@]2(C)CC[C@@H]2[C@@H]1CC2(C)C [(-)-caryophyllene oxide]", "DF norm AVERAGE OR10a", 0),
    ("CCCCCC(O)CC (centres unmarked)", "DF norm AVERAGE OR10a", 0.05884),
]

API: the following record is the query input.
Q: Look up DF norm AVERAGE OR10a: C=C1[C@H]2CC[C@@H]3[C@H]2C(C)(C)CCC[C@]13C [(+)-longifolene]
A: 0.05372

Where these numbers come from: paper PMC10709440
